# TARGET OR SYSTEM: TYK2-JH2 domain (Homo sapiens)
# Construct: IC50 on JH2 domain activity (nM)
# Sequence (P29597 589-875 limits assumed): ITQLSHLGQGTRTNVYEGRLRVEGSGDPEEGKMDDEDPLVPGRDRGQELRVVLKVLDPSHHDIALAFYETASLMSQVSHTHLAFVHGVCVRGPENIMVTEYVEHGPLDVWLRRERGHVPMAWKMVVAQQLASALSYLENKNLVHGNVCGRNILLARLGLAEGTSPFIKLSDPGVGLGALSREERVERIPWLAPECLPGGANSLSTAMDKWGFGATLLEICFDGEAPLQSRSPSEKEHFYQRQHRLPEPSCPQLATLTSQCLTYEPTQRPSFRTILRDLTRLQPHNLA
# PROCEDURE SUMMARY: Binding activity test for JH2 domain of TYK2 (Tb-antibody/tracer FRET)
MEASURED PROPERTY: IC50 (pM)
Give just the number in pM; leave the unit off.

> print(dat)
                              record.smiles  units.symbol  readout.number
1  [2H]C([2H])([2H])NC(=O)c1cnc(NC(=O)C2CCC2)cc1Nc1ccc2cnn(CC)c2c1OC            pM            1180

*Q* Given the compound `[2H]C([2H])([2H])NC(=O)c1cnc(NC(=O)C2CC2)cc1Nc1ncn2ncc(Cl)c2c1OC` , what is its reported IC50?
*A* 250

*Q* Reported IC50, compound `CCn1ccc2c(c(Nc3cc(NC(=O)C4CC4)ncc3C(=O)NC)cn2C2CC2)c1=O` : ____
*A* 157

*Q* Fill in: IC50 of `[2H]C([2H])([2H])NC(=O)c1cnc(NC(=O)C2CC2)cc1Nc1ncn2ncc(C)c2c1OC` is ___
*A* 330

###

# TARGET OR SYSTEM: Ba/F3-FL-TYK2-P760L cells (Homo sapiens, UniProt P29597, P760L, cells depend on it)
# Construct: BaF3-FL-T2P760L (nM)
# Sequence (P29597 whole entry P760L): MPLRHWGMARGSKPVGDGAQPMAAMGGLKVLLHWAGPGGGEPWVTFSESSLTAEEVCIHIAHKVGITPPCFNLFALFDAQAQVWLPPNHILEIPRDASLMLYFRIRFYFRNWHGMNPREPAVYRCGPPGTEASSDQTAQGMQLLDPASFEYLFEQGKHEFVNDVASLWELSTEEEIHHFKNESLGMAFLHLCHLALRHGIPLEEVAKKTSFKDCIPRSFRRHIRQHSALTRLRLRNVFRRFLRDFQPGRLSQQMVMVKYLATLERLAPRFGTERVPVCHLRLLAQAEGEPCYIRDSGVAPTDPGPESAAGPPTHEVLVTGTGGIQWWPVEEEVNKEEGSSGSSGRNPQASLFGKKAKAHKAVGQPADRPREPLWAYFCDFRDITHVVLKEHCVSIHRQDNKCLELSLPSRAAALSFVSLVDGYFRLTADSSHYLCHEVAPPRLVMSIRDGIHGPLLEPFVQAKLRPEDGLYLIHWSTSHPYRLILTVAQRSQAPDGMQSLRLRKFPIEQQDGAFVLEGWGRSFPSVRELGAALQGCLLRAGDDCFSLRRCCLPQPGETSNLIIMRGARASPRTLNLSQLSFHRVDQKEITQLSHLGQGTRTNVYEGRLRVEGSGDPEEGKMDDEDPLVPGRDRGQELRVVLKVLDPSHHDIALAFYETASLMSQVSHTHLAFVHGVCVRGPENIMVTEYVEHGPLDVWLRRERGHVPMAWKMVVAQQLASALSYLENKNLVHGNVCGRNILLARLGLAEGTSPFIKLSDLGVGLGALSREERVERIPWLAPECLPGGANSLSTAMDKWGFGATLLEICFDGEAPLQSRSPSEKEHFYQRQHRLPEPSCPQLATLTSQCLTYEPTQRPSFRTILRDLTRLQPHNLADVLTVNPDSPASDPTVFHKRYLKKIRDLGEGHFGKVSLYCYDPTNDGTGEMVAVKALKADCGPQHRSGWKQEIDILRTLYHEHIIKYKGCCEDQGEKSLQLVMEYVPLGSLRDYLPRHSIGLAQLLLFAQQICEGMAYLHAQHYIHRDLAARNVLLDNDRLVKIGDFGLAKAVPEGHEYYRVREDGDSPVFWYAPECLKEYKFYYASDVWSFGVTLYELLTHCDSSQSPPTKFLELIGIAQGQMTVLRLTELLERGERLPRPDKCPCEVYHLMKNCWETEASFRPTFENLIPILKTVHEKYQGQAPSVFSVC
# PROCEDURE SUMMARY: Anti-proliferative assay, Ba/F3-FL-TYK2-P760L cells (Cell-Titer Glo)
# Assay type: cell-based
# EXPERIMENTAL PARAMETERS: 72 h, read-out: BaF3-FL-T2P760L IC50
Lab note: anything with GI50 below 200 nM is marked YES; values at 200 nM or higher are marked NO.

*Q* Threshold test, GI50 < 200 nM: `[2H]C([2H])([2H])NC(=O)c1cnc(NC(=O)C2CC2)cc1Nc1nn(CC2CC2)c2ccn(CC(F)(F)F)c(=O)c12`
*A* YES

*Q* Problem: For the compound `[2H]C([2H])([2H])NC(=O)c1cnc(NC(=O)C2CC2)cc1Nc1ccn2ncc(COC)c2c1OC` , is GI50 under 200 nM?
*A* NO

*Q* Check if GI50 falls below 200 nM for `[2H]C([2H])([2H])NC(=O)c1cnc(NC(=O)[C@@H]2C[C@H]2F)cc1Nc1cn(C)c2ccn(CC)c(=O)c12` .
*A* NO

*Q* Threshold test, GI50 < 200 nM: `[2H]C([2H])([2H])NC(=O)c1cnc(Nc2ccc(F)cn2)cc1Nc1ccc2cnn(CC)c2c1OC`
*A* YES

*Q* Consider the compound `CNC(=O)c1nnc(Nc2ccc(F)cn2)cc1Nc1cccc(OC2CCOCC2)c1OC` . Is its GI50 strictly less than 200 nM?
*A* NO

*Q* In the record for `[2H]C([2H])([2H])NC(=O)c1cnc(Nc2cc(C)nc(C)n2)cc1Nc1cc(F)c2cnn(CC)c2c1OC` , is GI50 less than 200 nM?
*A* YES

*Q* Does the reported GI50 of the following compound sit strictly below 200 nM? `[2H]C([2H])([2H])NC(=O)c1cnc2nc1Nc1cc(cc(-c3ncn(C)n3)c1OC)COCc1cc(F)cc(c1)N2`
*A* YES

###

# TARGET OR SYSTEM: TYK2-JH2 domain (Homo sapiens)
# Construct: IC50 on JH2 domain activity (nM)
# PROCEDURE SUMMARY: Binding activity test for JH2 domain of TYK2 (Tb-antibody/tracer FRET)
# EXPERIMENTAL PARAMETERS: ratio JAK1-JH2 IC50 / TYK2-JH2 IC50
Some molecules, each annotated with its measured JAK1/TYK2 selectivity.
Answer with a bare number; do not write a unit.

Here's what some known entries look like.
> print(dat)
                                   molecule      measured.property  readout.number
1  [2H]C([2H])([2H])NC(=O)c1cnc(NC(=O)C2CC2)cc1Nc1ccc2cnn(C(C)C#N)c2c1OC (single isomer, unassigned) [Example 249B]  JAK1/TYK2 selectivity           39.25
2  [2H]C([2H])([2H])NC(=O)c1cnc(NC(=O)C2CC2)cc1Nc1ccn2ncc(C#N)c2c1OC  JAK1/TYK2 selectivity            67.0

Here's the next entry for you.
*Q* Field: JAK1/TYK2 selectivity (TYK2-JH2 domain (Homo sapiens)). Entry: `[2H]C([2H])([2H])NC(=O)c1cnc(NC(=O)C2CC2)cc1Nc1ncc2cnn(CC(C)(F)F)c2c1OC`
*A* 436.1
